system.under.test: NS3 protease (dengue virus type 1, UniProt A0A0K0TQ28)
experimental.protocol: Functional biochemical assay to identify treatments for viral infectious disease that targets Dengue virus type 1 NS2B-NS3 protease. Utilizing a direct enzyme activity measurement method, reading the fluorescence intensity is used to characterize the relative potency of inhibitors as IC50.
pIC50: −log10 of the molar value.
Classify as follows. Reported pIC50 greater than or equal to 5: true. Reported pIC50 below: false.

>>> assigned_class("CC(C)CNC(=O)c1cc(Cl)ccc1NS(=O)(=O)c1ccc(Oc2ccccc2Cl)cc1")
"false"
>>> assigned_class("Cn1cc(CNC(=O)[C@H](Nc2ccc3c(c2)CNC3)c2cc(Cl)cc(C3CC3)c2)cn1")
"false"
>>> assigned_class("CNC(=O)[C@H](Nc1cc(CN)cc(-c2nn[nH]n2)c1)c1cc(Cl)cc(C2CC2)c1")
"false"
>>> assigned_class("O=C(Nc1ccc2c(c1)CNC2)c1cc(F)cc2[nH]c(-c3ccc(F)cc3)nc12")
"true"
>>> assigned_class("O=C(Nc1ccc2c(c1)CNC2)c1cccc(-c2cnco2)c1")
"false"
>>> assigned_class("O=C(Nc1ccc2c(c1)CNC2)c1cc(F)cc2[nH]ncc12")
"false"
>>> assigned_class("N#Cc1cccc(-c2nc3c(C(=O)Nc4ccc5c(c4)CNC5)cc(F)cc3[nH]2)c1")
"true"
>>> assigned_class("CC(C)NC(=O)[C@H](Nc1ccc2c(c1)CNC2)c1cc(Cl)cc2[nH]ncc12")
"false"

Prompt: Could you tell me if the measured pIC50 of "O=C(Nc1ccc2c(c1)CNC2)c1cc(Cl)cc2ccncc12" reaches 5 or more?
Completion: false

* * *

Quick reference: pIC50 of the listed items.
system.under.test: NS3 protease (dengue virus type 1, UniProt A0A0K0TQ28)
experimental.protocol: Functional biochemical assay to identify treatments for viral infectious disease that targets Dengue virus type 1 NS2B-NS3 protease. Utilizing a direct enzyme activity measurement method, reading the fluorescence intensity is used to characterize the relative potency of inhibitors as IC50.
Conceptually, pIC50 converts a concentration in mol/L into minus its log10.

Below, 4 compounds whose answers are already recorded.
>>> measured_result("N#C[C@H](Nc1cccc(-c2nn[nH]n2)c1)c1cc(Cl)cc(NC(=O)OCc2ccccc2)c1")
5.00
>>> measured_result("N[C@H]1CC[C@H](c2ccc(NC(=O)c3cc(Cl)cc(NC(=O)OCc4ccccc4)c3)cc2)C1")
5.07
>>> measured_result("C=CC[C@H](Nc1cc(Cl)cc(NC(=O)OCc2ccccc2)c1)c1cccc(-c2nn[nH]n2)c1")
5.19
>>> measured_result("C=CC[C@H]1NCc2cc(N[C@H](C(=O)NC(C)C)c3cc(Cl)cc4[nH]ncc34)ccc21")
4.09

Prompt: Please list pIC50 recorded for the compound "O=C(Nc1cc(Cl)cc([C@H]2C[C@@H]2c2cccc(C3CCNCC3)c2)c1)OCc1ccccc1"
Completion: 5.20

Prompt: Please list pIC50 recorded for the compound "O=C(Nc1ccc2c(c1)CNC2)c1cc(F)cc2[nH]c(-c3ccccc3F)nc12"
Completion: 5.41

Prompt: Please list pIC50 recorded for the compound "CC(C)c1nnc(-c2nc3c(C(=O)Nc4ccc5c(c4)CNC5)cc(F)cc3[nH]2)s1"
Completion: 4.66

Prompt: Please list pIC50 recorded for the compound "O=C(Nc1ccc2c(c1)CNC2)c1cc(F)cc2[nH]c(-c3ccccc3)nc12"
Completion: 5.44

Prompt: Please list pIC50 recorded for the compound "Cc1cccc(-c2nc3c(C(=O)Nc4ccc5c(c4)CNC5)cc(Cl)cc3[nH]2)c1O"
Completion: 5.37

Prompt: Please list pIC50 recorded for the compound "Cc1c(C(=O)Nc2cc(-c3cccnc3)ccn2)cc(C2CC2)n1C"
Completion: 5.32

Prompt: Please list pIC50 recorded for the compound "NCc1cccc(NC(=O)c2cc(Cl)cc(NC(=O)OCc3ccccc3)c2)c1"
Completion: 4.29

Prompt: Please list pIC50 recorded for the compound "Cn1cc(CCc2nc3c(C(=O)Nc4ccc5c(c4)CNC5)cc(Cl)cc3[nH]2)cn1"
Completion: 4.67

Prompt: Please list pIC50 recorded for the compound "CCc1cc(C(=O)Nc2cccc(-n3nn[nH]c3=O)c2)sc1-c1ccc(Cl)cc1"
Completion: 4.94

* * *

system.under.test: NS3 protease (dengue virus type 1, UniProt A0A0K0TQ28)
Sequence (A0A0K0TQ28 whole entry): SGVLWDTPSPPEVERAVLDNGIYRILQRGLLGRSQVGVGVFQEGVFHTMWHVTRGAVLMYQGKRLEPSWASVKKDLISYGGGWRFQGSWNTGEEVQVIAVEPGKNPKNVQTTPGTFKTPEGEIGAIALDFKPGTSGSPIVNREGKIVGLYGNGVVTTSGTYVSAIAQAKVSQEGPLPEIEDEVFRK
experimental.protocol: Functional biochemical assay to identify treatments for viral infectious disease that targets Dengue virus type 1 NS2B-NS3 protease. Utilizing a direct enzyme activity measurement method, reading the fluorescence intensity is used to characterize the relative potency of inhibitors as IC50.
assay.metric: pIC50
Conceptually, pIC50 converts a concentration in mol/L into minus its log10.

Below, 3 compounds whose answers are already recorded.
>>> measured_result("CC(C)(c1nc2c(C(=O)Nc3ccc4c(c3)CNC4)cc(F)cc2[nH]1)S(C)(=O)=O")
4.79
>>> measured_result("N#Cc1ccc(-c2nc3c(C(=O)Nc4ccc5c(c4)CNC5)cc(F)cc3[nH]2)cc1")
5.77
>>> measured_result("O=C(Nc1cc(Cl)cc(C(=O)Nc2ccc3c(c2)CCNC3)c1)OCc1ccccc1")
4.32

// next item, pIC50 requested
Prompt: Please list pIC50 recorded for the compound "O=C(Nc1ccc2c(c1)CNC2)c1ccc2[nH]cc(C3CCNCC3)c2c1"
Completion: 4.51

* * *

system.under.test: NS3 protease (dengue virus type 1)
experimental.protocol: Functional biochemical assay to identify treatments for viral infectious disease that targets Dengue virus type 1 NS2B-NS3 protease. Utilizing a direct enzyme activity measurement method, reading the fluorescence intensity is used to characterize the relative potency of inhibitors as IC50.
Quick reference: IC50 of the listed items.

Prompt: Please list IC50 recorded for the compound "C=CC[C@H]1NCc2cc(NC(=O)c3cc(F)cc4[nH]ncc34)ccc21"
Completion: > 99.5 µM

Prompt: Please list IC50 recorded for the compound "C=CC[C@H]1NCc2cc(NC(=O)c3cc(Cl)cc4[nH]ncc34)ccc21"
Completion: > 99.5 µM

Prompt: Please list IC50 recorded for the compound "C=CC[C@H]1NCc2cc(NC(=O)c3cccc4c3CC(=O)N4)ccc21"
Completion: > 99.5 µM

Prompt: Please list IC50 recorded for the compound "Cc1nc2c(C(=O)Nc3ccc4c(c3)CNC4)cc(Cl)cc2[nH]1"
Completion: > 99.5 µM

Prompt: Please list IC50 recorded for the compound "O=C(NCC(F)F)[C@H](Nc1ccc2c(c1)CNC2)c1cc(F)cc2[nH]ncc12"
Completion: > 99.5 µM

Prompt: Please list IC50 recorded for the compound "O=C(Nc1ccc2c(c1)CNC2)c1cc(F)cc2c1CCC2"
Completion: > 99.5 µM

Prompt: Please list IC50 recorded for the compound "O=C(Nc1cc2c(c(C3=CCS(=O)(=O)CC3)c1)CNC2)c1cc(F)cc2[nH]ncc12"
Completion: > 99.5 µM

Prompt: Please list IC50 recorded for the compound "O=C(Nc1ccc2c(c1)CNC2)c1cc(Cl)cc2c1CCC2"
Completion: > 99.5 µM

Prompt: Please list IC50 recorded for the compound "Cn1cc2cc(Cl)cc(C(=O)Nc3ccc4c(c3)CNC4)c2n1"
Completion: > 99.5 µM

Prompt: Please list IC50 recorded for the compound "O=C(Nc1ccc2c(c1)CNC2)c1cccc2cn[nH]c12"
Completion: 49.9 µM

* * *

system.under.test: UniProt A0A0K0TQ28
experimental.protocol: Functional biochemical assay to identify treatments for viral infectious disease that targets Dengue virus type 1 NS2B-NS3 protease. Utilizing a direct enzyme activity measurement method, reading the fluorescence intensity is used to characterize the relative potency of inhibitors as IC50.
assay.metric: IC50 (µM)
Output spec: scalar in µM, unitless text.

>>> measured_result("O=C(Nc1ccc2c(c1)CNC2)c1cc(Cl)cc(C(F)(F)F)n1")
7.25

Prompt: Please list IC50 recorded for the molecule "O=C(Nc1cc(Br)c2c(c1)CNC2)c1cc(F)cc2[nH]ncc12"
Completion: 75.5

Prompt: Please list IC50 recorded for the molecule "COc1cc(-c2cc(NC(=O)c3cc(F)cc4[nH]ncc34)cc3c2CNC3)ccn1"
Completion: 82.8

Prompt: Please list IC50 recorded for the molecule "NCc1ccc([C@H]2C[C@@H]2c2cc(Cl)cc(NC(=O)OCc3ccccc3)c2)cc1"
Completion: 8.89

Prompt: Please list IC50 recorded for the molecule "O=C1Cc2c(cc(F)cc2C(=O)Nc2ccc3c(c2)CNC3)N1"
Completion: 36.2

Prompt: Please list IC50 recorded for the molecule "O=C(Nc1ccc2c(c1)CNC2)c1cc(Cl)cc2[nH]ncc12"
Completion: 69.2

Prompt: Please list IC50 recorded for the molecule "O=C(Nc1cc(Cl)cc([C@H](C#CCO)Nc2cccc(-c3nn[nH]n3)c2)c1)OCc1ccccc1"
Completion: 12.7

Prompt: Please list IC50 recorded for the molecule "Cc1c(C(=O)Nc2cc(CCCN)ccn2)cc(C2CC2)n1C"
Completion: 25.5
